Catalogue of pKd readings, one per entry.
molecular target: T1, human SIRP-α v2 D1 domain (human); test: SPR, antibody immobilised on GLC chip
T1 construct: also called human v2; human α v2
T1 sequence (chain, as listed by the source limits assumed): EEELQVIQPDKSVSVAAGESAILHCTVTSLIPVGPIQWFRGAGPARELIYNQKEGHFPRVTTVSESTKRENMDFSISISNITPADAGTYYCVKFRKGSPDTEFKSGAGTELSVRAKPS
pKd: −log10 of the molar value.

>  <binder>
antibody 136 variant MutRv_S22T/mut (antibody, human IgG1, V domains shown, Human IgG1 with L234A/L235A/G237A/N297A; Labels are light chain/heavy chain) VH: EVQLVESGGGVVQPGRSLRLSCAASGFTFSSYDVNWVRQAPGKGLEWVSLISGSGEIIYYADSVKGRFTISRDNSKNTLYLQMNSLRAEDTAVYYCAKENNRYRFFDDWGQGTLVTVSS VL: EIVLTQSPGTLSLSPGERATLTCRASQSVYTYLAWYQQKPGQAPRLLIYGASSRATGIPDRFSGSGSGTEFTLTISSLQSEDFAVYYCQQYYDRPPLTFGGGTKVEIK

>  <pKd>
8.08

$$$$
>  <binder>
antibody 136 variant MutRv_S12T/mut (antibody, human IgG1, V domains shown, Human IgG1 with L234A/L235A/G237A/N297A; Labels are light chain/heavy chain) VH: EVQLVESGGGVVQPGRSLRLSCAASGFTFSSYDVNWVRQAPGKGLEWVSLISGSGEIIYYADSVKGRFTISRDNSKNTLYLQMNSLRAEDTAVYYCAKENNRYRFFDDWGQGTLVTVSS VL: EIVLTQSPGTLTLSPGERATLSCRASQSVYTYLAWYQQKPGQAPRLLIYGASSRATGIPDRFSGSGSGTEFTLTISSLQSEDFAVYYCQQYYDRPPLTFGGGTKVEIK

>  <pKd>
7.98

$$$$
>  <binder>
antibody 136 variant MutRv_I2T/mut_V34M (antibody, human IgG1, V domains shown, Human IgG1 with L234A/L235A/G237A/N297A; Labels are light chain/heavy chain) VH: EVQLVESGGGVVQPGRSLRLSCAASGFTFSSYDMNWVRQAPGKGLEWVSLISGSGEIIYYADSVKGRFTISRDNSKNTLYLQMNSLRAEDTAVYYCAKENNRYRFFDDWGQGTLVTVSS VL: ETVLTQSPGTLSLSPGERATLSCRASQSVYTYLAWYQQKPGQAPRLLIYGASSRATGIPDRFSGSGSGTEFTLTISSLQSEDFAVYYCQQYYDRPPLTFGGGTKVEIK

>  <pKd>
8.76

$$$$

All figures here come from patent US20210363269A1.
